Experiment: Drug metabolism in human liver microsomes assessed as UGT-mediated compound glucuronidation per mg protein in presence of microsomal activator Brij58 and cofactor UDPGA
Type: ADME
Metric: Drug metabolism (µL/min)
One number for each entry, in µL/min.

Molecule smiles	Unit annotation	Drug metabolism
CCc1cc(O)c(F)cc1-c1ccc2c(-c3nc4c([nH]3)CCN(C(=O)c3cnc(N5CCCCC5)cn3)C4)n[nH]c2c1	µL/min	129

Next up:
Any idea what its Drug metabolism is? The compound is `CCc1cc(O)ccc1-c1ccc2c(-c3nc4c([nH]3)CN(S(C)(=O)=O)CC4)n[nH]c2c1` 7.3

---

Assay: Terminal half life in dog at 0.1 mg/kg, iv administered as 30 mins infusion
Assay type: ADME, organism-based, Canis lupus familiaris
Conditions: in vivo, read-out: beta t1/2 (converted)
Metric: half-life

Recorded half-life for `CCc1cc(O)c(F)cc1-c1ccc2c(-c3nc4c([nH]3)CCN(C(=O)c3cnc(N5CCCCC5)cn3)C4)n[nH]c2c1` , please? 2 h

---

Would you mind telling me the reported solubility thermodynamic of each entry?
Test: Thermodynamic solubility of the compound in pH 7.4 water buffer using crystalline solid sample
Assay type: physicochemical
Details: read-out: Therm_solubility
One number for each entry, in µM.

Sample records with solubility thermodynamic:
Molecule smiles	Unit annotation	Readout value
CCc1cc(O)c(F)cc1-c1ccc2c(-c3nc4c([nH]3)CCN(C(=O)c3cnc(N5CCCCC5)cn3)C4)n[nH]c2c1	µM	0.5
CCc1cc(O)ccc1-c1ccc2c(C(=O)Nc3ccc(C)nc3)n[nH]c2c1	µM	0.5
CCc1cc(O)ccc1-c1ccc2c(C(=O)NC)n[nH]c2c1	µM	14
CCc1cc(O)ccc1-c1ccc2c(-c3ncc[nH]3)n[nH]c2c1	µM	4.1

Which solubility thermodynamic is reported for this compound? `CCc1cc(O)ccc1-c1ccc2c(C(N)=O)n[nH]c2c1` 15

---

Assay: Drug metabolism in human liver microsomes assessed as UGT-mediated compound glucuronidation per mg protein in presence of microsomal activator Brij58 and cofactor UDPGA
Assay type: ADME
Assign Drug metabolism to each entry below.
Give bare numbers, in µL/min.

Worked examples follow.
Molecule smiles	Unit annotation	Readout value
CCc1cc(O)ccc1-c1ccc2c(-c3nc4ccccc4[nH]3)n[nH]c2c1	µL/min	49
CCc1cc(O)ccc1-c1ccc2c(-c3nc4c([nH]3)CN(C(C)=O)CC4)n[nH]c2c1	µL/min	5.5
CCc1cc(O)c(F)cc1-c1ccc2c(-c3nc4c([nH]3)CCN(C(=O)c3ccc(F)cc3)C4)n[nH]c2c1	µL/min	37

// for each compound below, give its Drug metabolism
1. CCc1cc(O)ccc1-c1ccc2c(-c3nc4c([nH]3)CCN(C(=O)c3cnc(N5CCCCC5)cn3)C4)n[nH]c2c1
2. CCc1c(-c2ccc3c(-c4nc5ccccc5[nH]4)n[nH]c3c2)ccc(O)c1F

1. 17
2. 46

---

Assay: Thermodynamic solubility of the compound in pH 7.4 water buffer using crystalline solid sample
Type: physicochemical
Conditions: read-out: Therm_solubility
Metric: solubility thermodynamic

Worked cases, answers included:
Molecule smiles	Metric	Readout value
CCc1cc(O)ccc1-c1ccc2c(-c3nc4c([nH]3)CN(C)CC4)n[nH]c2c1	solubility thermodynamic	10 to 20 µM
C[C@@H]1CCN(C(=O)N2CC[C@@H](S(=O)(=O)c3cccc(O)c3)C2)C[C@@H]1N(C)c1ncnc2[nH]ccc12	solubility thermodynamic	20 µg/mL

Now take the following compound into account.
Entry `CCc1cc(O)ccc1-c1ccc2c(-c3nc4c([nH]3)CN(C(C)=O)CC4)n[nH]c2c1` : reported solubility thermodynamic = ? 10 to 20 µM
